Target: GST-Dm-Relish (Drosophila melanogaster, UniProt Q94527 99-473)
Sequence: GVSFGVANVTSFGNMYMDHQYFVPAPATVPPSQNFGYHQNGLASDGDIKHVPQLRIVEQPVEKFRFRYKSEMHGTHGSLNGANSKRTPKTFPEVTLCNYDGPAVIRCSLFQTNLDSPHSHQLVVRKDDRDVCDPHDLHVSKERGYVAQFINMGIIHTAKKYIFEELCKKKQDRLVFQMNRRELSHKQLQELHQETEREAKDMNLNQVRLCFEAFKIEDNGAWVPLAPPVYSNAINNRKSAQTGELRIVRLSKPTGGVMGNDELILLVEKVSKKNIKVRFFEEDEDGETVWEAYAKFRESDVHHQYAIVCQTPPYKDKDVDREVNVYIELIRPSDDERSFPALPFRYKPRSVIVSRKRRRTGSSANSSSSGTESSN
Assay: protein-binding microarray (PBM); PBM: ~300 nM protein, 6 mM HEPES pH 7.8, 80 mM KCl, 0.5 mM EDTA, 0.5 mM EGTA, 6% glycerol, 35 ng/ul poly-dIdC, 1% milk, 1 h, room temperature; Ap Aiptasia and Nv Nematostella (sea anemones) / Co Capsaspora / Aq Amphimedon (sponge) / Dm Drosophila / Hu human; RHD is the Rel homology domain; high values mean tight binding
Settings: dsDNA, one strand shown
readout-name: binding signal (z-score)

1. CCGATTAACATCATAAAATCCCATGATGTTAATCGGGTCTTGATTCGCTTGACGCTGCTG :: 6.55
2. CCGATTAACATCAAGGGGGAAAATGATGTTAATCGGGTCTTGATTCGCTTGACGCTGCTG :: 4.2
3. CCGATTAACATCAGGGACTTACCTGATGTTAATCGGGTCTTGATTCGCTTGACGCTGCTG :: 7.96
4. CCGATTAACATCACACATTCCCCTGATGTTAATCGGGTCTTGATTCGCTTGACGCTGCTG :: 2.91
5. CCGATTAACATCAGGGGAAGAAATGATGTTAATCGGGTCTTGATTCGCTTGACGCTGCTG :: 6.53
